# assay.target: T1, human MSLN-R3-his protein (human, UniProt Q13421 487-598)
# T1 construct: Region 3 of human mesothelin, made in HEK293E cells, His-tagged; also called human MSLN-R3 protein; hMSLN-R3-his; not shown: His tag
# T1 sequence (Q13421 495-606): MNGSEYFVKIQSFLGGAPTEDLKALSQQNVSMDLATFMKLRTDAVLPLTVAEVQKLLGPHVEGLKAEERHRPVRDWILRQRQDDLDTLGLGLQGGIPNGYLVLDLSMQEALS
# experimental.details: ELISA on coated MSLN-R3; antibody 0.01 nM
# OD450 annotations
Report only the number, with the unit OD450 understood.

Record excerpt, results attached:
S009-F8-22.23 (antibody, human IgG1, kappa, V domains shown) VH: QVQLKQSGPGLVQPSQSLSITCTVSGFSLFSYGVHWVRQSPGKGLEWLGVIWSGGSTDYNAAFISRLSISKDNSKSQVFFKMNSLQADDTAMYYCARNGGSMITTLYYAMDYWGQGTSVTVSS VL: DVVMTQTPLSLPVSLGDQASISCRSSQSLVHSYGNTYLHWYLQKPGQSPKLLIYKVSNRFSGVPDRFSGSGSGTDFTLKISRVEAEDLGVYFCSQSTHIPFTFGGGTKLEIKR : 0.04
S009-F8-9.16 (antibody, human IgG1, kappa, V domains shown) VH: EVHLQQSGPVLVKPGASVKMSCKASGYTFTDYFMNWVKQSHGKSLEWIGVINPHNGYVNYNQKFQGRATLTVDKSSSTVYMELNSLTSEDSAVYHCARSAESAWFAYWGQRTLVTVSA VL: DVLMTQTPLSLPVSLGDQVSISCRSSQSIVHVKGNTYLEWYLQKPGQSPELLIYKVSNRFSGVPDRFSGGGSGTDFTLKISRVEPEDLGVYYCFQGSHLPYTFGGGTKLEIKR : 0.5

Let us examine a further case.
stdin: Fill blank: measured OD450 of the binder S009-F8-32.3 (antibody, human IgG1, kappa, V domains shown) VH: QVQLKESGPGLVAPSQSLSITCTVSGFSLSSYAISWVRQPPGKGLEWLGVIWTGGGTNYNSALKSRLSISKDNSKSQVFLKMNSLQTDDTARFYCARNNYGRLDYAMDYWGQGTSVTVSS VL: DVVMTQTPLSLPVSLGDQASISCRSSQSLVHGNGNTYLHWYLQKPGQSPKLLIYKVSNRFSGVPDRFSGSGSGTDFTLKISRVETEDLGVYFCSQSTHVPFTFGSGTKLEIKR is ____.
stdout: 0.04
